The measurements presented in this section are drawn from ChEMBL document CHEMBL1129517.

The reader will find ED50 measurements below, all made with Adenosine receptor A2a (Oryctolagus cuniculus).
One number for each entry, in µM.

Before answering, review these 3 worked examples.
Molecular String	Study Target	Units Label	ED50
Nc1nc2nn(Cc3ccc(F)cc3)cc2c2nc(-c3ccco3)nn12	Adenosine receptor A2a (Oryctolagus cuniculus)	µM	0.004
CCCCn1ncc2c1nc(N)n1nc(-c3ccco3)nc21	Adenosine receptor A2a (Oryctolagus cuniculus)	µM	0.3
Nc1nc2c(cnn2CCN2CCOCC2)c2nc(-c3ccco3)nn12	Adenosine receptor A2a (Oryctolagus cuniculus)	µM	0.03

Consider now this further compound.
In: Reported ED50 for Nc1nc2c(cnn2Cc2ccc(F)cc2)c2nc(-c3ccco3)nn12 : what is it?
Out: 10.6

###

Can you tell me Ki for the items I'm about to list?
# Study Target: Adenosine receptor A1 (Rattus norvegicus, UniProt P25099)
# Sequence (P25099 whole entry): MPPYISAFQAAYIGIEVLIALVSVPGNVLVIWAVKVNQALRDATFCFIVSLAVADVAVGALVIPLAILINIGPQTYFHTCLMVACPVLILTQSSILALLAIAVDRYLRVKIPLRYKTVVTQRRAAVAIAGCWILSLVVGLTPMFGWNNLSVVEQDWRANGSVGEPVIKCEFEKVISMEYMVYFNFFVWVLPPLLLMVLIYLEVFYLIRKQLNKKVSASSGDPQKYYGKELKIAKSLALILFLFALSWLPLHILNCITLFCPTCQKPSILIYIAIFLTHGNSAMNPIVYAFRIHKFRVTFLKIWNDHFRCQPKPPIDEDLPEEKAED
# Procedure Details: biochemical
# Description: Inhibition of [3H]-CHA binding to Adenosine A1 receptor in rat whole brain homogenates.
Remember to follow the number with its unit.

Consider the worked cases shown below.
Molecular String	Quantity Name	Value
Nc1nc2c(cnn2-c2ccccc2)c2nc(-c3ccco3)nn12	Ki	119 nM
CC(C)(C)n1ncc2c1nc(N)n1nc(-c3ccco3)nc21	Ki	430 nM

Turning now to a further record.
In: Reported Ki for Nc1nc2c(cnn2Cc2ccc(F)cc2)c2nc(-c3ccco3)nn12 : what is it?
Out: 189 nM

###

Please go through the items and note down their Ki.
# Study Target: Adenosine receptor A2a (Rattus norvegicus, UniProt P30543)
# Sequence (P30543 whole entry): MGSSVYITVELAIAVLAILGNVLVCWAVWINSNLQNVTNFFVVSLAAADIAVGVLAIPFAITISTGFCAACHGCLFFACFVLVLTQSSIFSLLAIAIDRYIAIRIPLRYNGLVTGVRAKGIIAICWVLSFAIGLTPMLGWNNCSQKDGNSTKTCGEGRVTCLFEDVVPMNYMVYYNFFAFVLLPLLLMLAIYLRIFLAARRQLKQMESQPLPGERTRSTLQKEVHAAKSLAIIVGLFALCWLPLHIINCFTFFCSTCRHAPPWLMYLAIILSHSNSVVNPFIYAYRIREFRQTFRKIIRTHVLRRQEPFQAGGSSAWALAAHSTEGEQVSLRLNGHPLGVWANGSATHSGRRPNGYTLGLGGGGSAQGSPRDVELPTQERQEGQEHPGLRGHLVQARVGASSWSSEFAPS
Answers are plain numbers, in nM.

Compound	Study Target	Ki, nM
Nc1nc2n[nH]cc2c2nc(-c3ccco3)nn12	Adenosine receptor A2a (Rattus norvegicus, UniProt P30543)	22.6

Please state Ki for every compound in the list that follows.
1. CCC(C)Cn1ncc2c1nc(N)n1nc(-c3ccco3)nc21 (stereo unspecified)
2. Nc1nc2c(cnn2-c2ccccc2)c2nc(-c3ccco3)nn12
3. Nc1nc2c(cnn2Cc2ccc(F)cc2)c2nc(-c3ccco3)nn12
4. Nc1nc2c(cnn2CCO)c2nc(-c3ccco3)nn12

Out:
12
22.7
12
77.7

###

# Study Target: Adenosine receptor A2a (Rattus norvegicus, UniProt P30543)
Quantity Name: Ki
Put down the number, then write its unit next to it.

Take a look at these entries with their results.
Molecule	Ki
Nc1nc2c(cnn2CCCc2ccccc2)c2nc(-c3ccco3)nn12 [SCH-63390]	2.4 nM
CC(C)Cc1ccc(CCn2ncc3c2nc(N)n2nc(-c4ccco4)nc32)cc1	22 nM

Lab note: next molecule to report on.
In: What does the data say about its Ki? Entry: Nc1nc2c(cnn2CCCCc2ccccc2)c2nc(-c3ccco3)nn12
Out: 21 nM
